# TARGET: T1, mouse GPVI extracellular domain fused at its C-terminus to human IgG1 Fc (GPVI-Fc) (mouse; human)
# T1 construct: also called mGPVI; mouse GPVI-Fc
# T1 sequence (chain, as listed by the source limits assumed): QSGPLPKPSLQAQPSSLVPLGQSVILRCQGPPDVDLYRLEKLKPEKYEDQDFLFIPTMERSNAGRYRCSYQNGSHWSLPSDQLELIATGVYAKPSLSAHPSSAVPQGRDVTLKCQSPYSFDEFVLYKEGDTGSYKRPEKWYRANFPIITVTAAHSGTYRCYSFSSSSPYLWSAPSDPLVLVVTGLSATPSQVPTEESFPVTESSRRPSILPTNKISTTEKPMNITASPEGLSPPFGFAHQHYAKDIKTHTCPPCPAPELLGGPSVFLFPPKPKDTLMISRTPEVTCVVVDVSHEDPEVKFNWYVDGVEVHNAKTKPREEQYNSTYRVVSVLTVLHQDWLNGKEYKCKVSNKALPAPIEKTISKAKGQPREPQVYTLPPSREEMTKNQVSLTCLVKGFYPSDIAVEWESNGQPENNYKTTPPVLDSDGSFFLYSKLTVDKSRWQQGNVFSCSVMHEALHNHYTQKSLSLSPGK
# ASSAY_OVERVIEW: Competition ELISA (MSD): mouse GPVI-Fc preincubated with Fab, then on coated CRP-XL (competitor)

BINDER	IC50 / nM
Fab #2 comprising a modified heavy chain constant region (Fab, V domains shown, Human Fab from the Ylanthia library; produced in HKB11 cells; also called Fab #2 mod; HC) VH: QVQLVESGGGLVKPGGSLRLSCAASGFSFSDHYMSWIRQAPGKGLEWVSSVGSEGKFIDYAASVKGRFTISRDNAKNSLYLQMNSLRAEDTAVYYCARHYREFRWHYYYFDYWGQGTLVTVSS VL: QSVLTQPPSVSGAPGQRVTISCTGSSSNIGAGYDVHWYQQLPGTAPKLLIYGNSNRPSGVPDRFSGSKSGTSASLAITGLQAEDEADYYCQSHDLGAHVWVFGGGTKLTVLG	12
Fab #1 comprising a modified heavy chain constant region (Fab, V domains shown, Human Fab from the Ylanthia library; produced in HKB11 cells; also called Fab #1 mod; HC) VH: QVQLVQSGAEVKKPGASVKVSCKASGYTFTSHYMHWVRQAPGQGLEWMGLIEPSEGETEYAQRFQGRVTMTRDTSTSTVYMELSSLRSEDTAVYYCARDSSRSYPLGFDIWGQGTLVTVSS VL: QSVLTQPPSVSAAPGQKVTISCSGSSSNIGNNYVSWYQQLPGTAPKLLIYDNNKRPSGIPDRFSGSKSGTSATLGITGLQTEDEADYYCAAWDFRSSRWVFGGGTKLTVLG	26.4
Fab #3 comprising a modified heavy chain constant region (Fab, V domains shown, Human Fab from the Ylanthia library; produced in HKB11 cells; also called Fab #3 mod; HC) VH: QVQLVESGGGLVKPGGSLRLSCAASGFSFGDYYVSWIRQAPGKGLEWVSAIGGSGSAVQYAESVKGRFTISRDNAKNSLYLQMNSLRAEDTAVYYCARHYREFRWHYYYFDYWGQGTLVTVSS VL: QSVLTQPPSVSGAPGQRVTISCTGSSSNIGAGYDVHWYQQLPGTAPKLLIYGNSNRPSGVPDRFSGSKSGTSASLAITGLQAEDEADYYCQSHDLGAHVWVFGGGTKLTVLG	8.1
Fab #4 comprising a modified heavy chain constant region (Fab, V domains shown, Human Fab from the Ylanthia library; produced in HKB11 cells; also called Fab #4 mod; HC) VH: QVQLVQSGAEVKKPGASVKVSCKASGGAFTSSYMHWVRQAPGQGLEWMGIIEPTGASTLYAQRFQGRVTMTRDTSTSTVYMELSSLRSEDTAVYYCARTGIALPLGFDLWGQGTLVTVSS VL: QSVLTQPPSVSAAPGQKVTISCSGSSSNIGNNYVSWYQQLPGTAPKLLIYDNNKRPSGIPDRFSGSKSGTSATLGITGLQTEDEADYYCAAWSTRFRWVFGGGTKLTVLG	10.6
